Assay: Measured activity expressed as ID50 (analogue)/ID50 (paclitaxel), where ID50 is the concentration of compound leading to 50% inhibition of the rate microtubule disassembly
Assay type: functional

- compound: "CC(=O)O[C@H]1C(=O)[C@]2(C)[C@@H](O)CC3OC[C@@]3(OC(C)=O)[C@H]2[C@H](OC(=O)c2ccccc2)[C@]2(O)C[C@H](OC(=O)[C@H](O)[C@H](NC(=O)c3ccccc3)c3ccc(Cl)c(Cl)c3)C(C)=C1C2(C)C (some centres undefined)"
  Activity: 7.1
- compound: "CC(=O)N[C@@H](c1ccccc1)[C@@H](O)C(=O)O[C@H]1C[C@@]2(O)[C@@H](OC(=O)c3ccccc3)[C@H]3[C@@](C)([C@@H](O)CC4OC[C@]43OC(C)=O)[C@@H](O)[C@H](OC(C)=O)C(=C1C)C2(C)C (some centres undefined)"
  Activity: 3.17
- compound: "CC(=O)O[C@@]12COC1C[C@H](O)[C@@]1(C)C(=O)C[C@@]34O[C@]3(C)[C@@H](OC(=O)[C@H](O)[C@@H](NC(=O)c3ccccc3)c3ccccc3)C[C@@](O)([C@@H](OC(=O)c3ccccc3)[C@@H]12)C4(C)C (some centres undefined)"
  Activity: 0.66
- compound: "COC[C@H](NC(=O)c1ccccc1)[C@@H](O)C(=O)O[C@H]1C[C@@]2(O)[C@@H](OC(=O)c3ccccc3)[C@H]3[C@@](C)([C@@H](O)CC4OC[C@]43OC(C)=O)[C@@H](O)[C@H](OC(C)=O)C(=C1C)C2(C)C (some centres undefined)"
  Activity: 3.14

Where these numbers come from: ChEMBL document CHEMBL1130335
